Measured values drawn from paper PMC10905675 for this set.

- SYSTEM NAME: CDK7 (Homo sapiens)
- Construct: purchased Carna 04-108
- Sequence (P50613 whole entry): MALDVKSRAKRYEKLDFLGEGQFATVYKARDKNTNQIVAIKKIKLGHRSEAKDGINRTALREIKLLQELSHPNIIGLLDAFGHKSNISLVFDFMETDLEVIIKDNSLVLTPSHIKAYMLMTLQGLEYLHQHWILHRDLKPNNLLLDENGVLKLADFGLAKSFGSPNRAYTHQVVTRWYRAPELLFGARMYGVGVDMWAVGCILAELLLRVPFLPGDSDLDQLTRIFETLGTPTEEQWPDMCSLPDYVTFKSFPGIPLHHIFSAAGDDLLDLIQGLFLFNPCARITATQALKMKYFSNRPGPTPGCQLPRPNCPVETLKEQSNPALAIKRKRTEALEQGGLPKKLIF
- Sequence (P51946 whole entry partner): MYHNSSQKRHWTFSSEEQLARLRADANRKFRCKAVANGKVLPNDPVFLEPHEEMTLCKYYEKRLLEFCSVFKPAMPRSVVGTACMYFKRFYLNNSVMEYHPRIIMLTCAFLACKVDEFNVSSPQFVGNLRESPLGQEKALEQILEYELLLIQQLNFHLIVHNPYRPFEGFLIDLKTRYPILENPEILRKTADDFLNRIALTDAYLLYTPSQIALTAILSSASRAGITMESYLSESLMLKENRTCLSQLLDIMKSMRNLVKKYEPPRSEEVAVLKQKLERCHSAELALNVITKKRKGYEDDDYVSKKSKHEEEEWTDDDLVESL
- Sequence (P51948 whole entry partner): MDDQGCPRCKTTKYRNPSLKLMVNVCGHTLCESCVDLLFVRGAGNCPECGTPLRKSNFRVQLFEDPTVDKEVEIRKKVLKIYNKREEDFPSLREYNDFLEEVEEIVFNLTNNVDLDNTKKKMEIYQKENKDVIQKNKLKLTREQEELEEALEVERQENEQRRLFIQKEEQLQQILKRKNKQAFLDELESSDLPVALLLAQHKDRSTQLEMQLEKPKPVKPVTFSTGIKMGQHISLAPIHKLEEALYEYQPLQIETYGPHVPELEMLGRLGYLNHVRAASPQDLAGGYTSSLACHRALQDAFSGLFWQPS
- TEST: Nanosyn biochemical assay
- EXPERIMENTAL PARAMETERS: Supp Fig S1C, value (SEM), read-out: IC50 (nM) CDK7
ATTRIBUTE MEASURED: IC50

Value of measured IC50 for the entry NS(=O)(=O)c1ccc(Nc2ncc3cc4n(c3n2)C2(CCCCC2)C(=O)NN4)cc1 [INX-315] : > 10000 nM

---

- SYSTEM NAME: CDK2/cyclin A2 (Homo sapiens, UniProt P24941)
- Construct: purchased Millipore 14-448
- TEST: Nanosyn biochemical assay
- EXPERIMENTAL PARAMETERS: Supp Fig S1D, representative dose response curve, read-out: IC50 CDK2 - Cyclin A
ATTRIBUTE MEASURED: IC50 (nM)
Lab book: enter the figure in nM, no units written.

Value of measured IC50 for the entry NS(=O)(=O)c1ccc(Nc2ncc3cc4n(c3n2)C2(CCCCC2)C(=O)NN4)cc1 : 2.96

---

- Tested on: all CCNE1-amplified lines
- TEST: CellTiter Glo viability assay
- Type: cell-based
- EXPERIMENTAL PARAMETERS: 144 h
ATTRIBUTE MEASURED: pIC50
Interpret pIC50 as the negative base-10 log of the concentration measured in mol/L.

Value of measured pIC50 for the entry NS(=O)(=O)c1ccc(Nc2ncc3cc4n(c3n2)C2(CCCCC2)C(=O)NN4)cc1 : 7.44

---

Assign IC50 to each entry below.
- SYSTEM NAME: CDK2/cyclin A2 (Homo sapiens, UniProt P24941)
- Construct: purchased Millipore 14-448
- TEST: Nanosyn biochemical assay
- EXPERIMENTAL PARAMETERS: ATP at Km, value (SEM), read-out: IC50 (nmol/L) CDK2/cyclin A2
A complete answer gives the number followed by the unit.

Simply: C[C@@H]1NC(=O)C2(CCCCC2)n2c1cc1cnc(Nc3ccc(S(N)(=O)=O)cc3)nc12 , CDK2/cyclin A2 (Homo sapiens, UniProt P24941), IC50 = 4 nmol/L

Simply: NS(=O)(=O)c1ccc(Nc2ncc3cc4n(c3n2)C2(CCCCC2)CN=C4)cc1 , CDK2/cyclin A2 (Homo sapiens, UniProt P24941), IC50 = 0.1 nmol/L

---

- SYSTEM NAME: CDK1/cyclin B1 (Homo sapiens, UniProt P06493)
- Construct: purchased Millipore 14-450M
- Sequence (P06493 whole entry): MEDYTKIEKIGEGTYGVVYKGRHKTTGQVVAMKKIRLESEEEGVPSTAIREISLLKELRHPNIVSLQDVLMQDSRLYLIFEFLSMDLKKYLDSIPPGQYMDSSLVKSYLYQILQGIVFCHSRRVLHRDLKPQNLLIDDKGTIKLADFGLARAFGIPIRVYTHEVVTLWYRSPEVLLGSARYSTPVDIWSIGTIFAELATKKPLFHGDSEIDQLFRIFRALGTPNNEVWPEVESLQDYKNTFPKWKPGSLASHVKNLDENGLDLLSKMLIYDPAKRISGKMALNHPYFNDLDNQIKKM
- Sequence (P14635 whole entry partner): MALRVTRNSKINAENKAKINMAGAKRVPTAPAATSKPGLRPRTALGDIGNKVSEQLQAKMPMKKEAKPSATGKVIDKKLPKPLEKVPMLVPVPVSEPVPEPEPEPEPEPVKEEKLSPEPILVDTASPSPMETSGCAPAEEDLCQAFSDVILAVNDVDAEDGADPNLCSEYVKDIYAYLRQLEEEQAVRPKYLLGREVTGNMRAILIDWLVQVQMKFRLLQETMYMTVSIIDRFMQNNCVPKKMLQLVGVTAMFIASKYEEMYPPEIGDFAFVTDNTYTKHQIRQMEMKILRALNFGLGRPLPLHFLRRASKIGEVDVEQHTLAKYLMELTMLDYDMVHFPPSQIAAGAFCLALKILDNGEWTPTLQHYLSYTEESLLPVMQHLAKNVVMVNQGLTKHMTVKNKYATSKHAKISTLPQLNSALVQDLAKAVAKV
- TEST: NanoBRET live cell target engagement
- Format: binding
- EXPERIMENTAL PARAMETERS: NanoBRET, HEK293 cells; value (SD); read-out: intracellular IC50 (nmol/L) CDK1/cyclin B1
ATTRIBUTE MEASURED: IC50 (nmol/L)
Lab book: enter the figure in nmol/L, no units written.

Value of measured IC50 for the entry NS(=O)(=O)c1ccc(Nc2ncc3cc4n(c3n2)C2(CCCCC2)C(=O)NN4)cc1 : 374

---

- System: T47D Abema-resistant
- TEST: Cell number dose-response
- Format: cell-based
- EXPERIMENTAL PARAMETERS: Homo sapiens, read-out: IC50 (nmol/L): T47D
ATTRIBUTE MEASURED: pIC50
Interpret pIC50 as the negative base-10 log of the concentration measured in mol/L.

Value of measured pIC50 for the entry NS(=O)(=O)c1ccc(Nc2ncc3cc4n(c3n2)C2(CCCCC2)C(=O)NN4)cc1 [INX-315] : 8.13
